All figures here come from ChEMBL document CHEMBL1156749.

The following compounds are shown together with reported Ratio values.
species: Rattus norvegicus; experiment: Selectivity ratio of Ki for rat NET to Ki for SERT
Lab note: write the figure by itself, no unit.

Task item: Give me measured Ratio, please, for this compound: Clc1ccc(CO[C@@]2(c3ccc(Cl)cc3)C[C@H]3CC[C@@H](C2)N3)cc1
Reply: 23700

Task item: Give me measured Ratio, please, for this compound: Clc1ccc([C@]2(OCc3ccccc3)C[C@H]3CC[C@@H](C2)N3)cc1
Reply: 26

Task item: Give me measured Ratio, please, for this compound: Clc1ccc([C@]2(OCc3ccccc3)C[C@H]3CC[C@@H](C2)N3)cc1Cl
Reply: 20

Task item: Give me measured Ratio, please, for this compound: FC(F)(F)c1ccc(C2=CC3CCC(C2)N3)cc1 (configuration not stated)
Reply: 432

Task item: Give me measured Ratio, please, for this compound: C1=C(c2ccccc2)CC2CCC1N2 (configuration not stated)
Reply: 7.3

Task item: Give me measured Ratio, please, for this compound: Clc1ccc(C2=CC3CCC(C2)N3)cc1Cl (configuration not stated)
Reply: 67

Task item: Give me measured Ratio, please, for this compound: Clc1ccc(CO[C@@]2(c3ccc(Cl)c(Cl)c3)C[C@H]3CC[C@@H](C2)N3)cc1Cl
Reply: 543

Task item: Give me measured Ratio, please, for this compound: FC(F)(F)c1ccc([C@]2(OCc3ccccc3)C[C@H]3CC[C@@H](C2)N3)cc1
Reply: 10

Task item: Give me measured Ratio, please, for this compound: Clc1ccc(CO[C@@]2(c3ccccc3)C[C@H]3CC[C@@H](C2)N3)cc1Cl
Reply: 16300

Task item: Give me measured Ratio, please, for this compound: Clc1ccc(C2=CC3CCC(C2)N3)cc1 (configuration not stated)
Reply: 43

Task item: Give me measured Ratio, please, for this compound: Clc1ccc(CO[C@@]2(c3ccccc3)C[C@H]3CC[C@@H](C2)N3)cc1
Reply: 17

Task item: Give me measured Ratio, please, for this compound: Clc1ccc(CO[C@@]2(c3ccc(Cl)c(Cl)c3)C[C@H]3CC[C@@H](C2)N3)cc1
Reply: 246

====

molecular target: Sodium-dependent serotonin transporter (Rattus norvegicus, UniProt P31652); experiment: Displacement of [3H]citalopram from SERT in rat brain; format: tissue-based
Sequence (P31652 whole entry): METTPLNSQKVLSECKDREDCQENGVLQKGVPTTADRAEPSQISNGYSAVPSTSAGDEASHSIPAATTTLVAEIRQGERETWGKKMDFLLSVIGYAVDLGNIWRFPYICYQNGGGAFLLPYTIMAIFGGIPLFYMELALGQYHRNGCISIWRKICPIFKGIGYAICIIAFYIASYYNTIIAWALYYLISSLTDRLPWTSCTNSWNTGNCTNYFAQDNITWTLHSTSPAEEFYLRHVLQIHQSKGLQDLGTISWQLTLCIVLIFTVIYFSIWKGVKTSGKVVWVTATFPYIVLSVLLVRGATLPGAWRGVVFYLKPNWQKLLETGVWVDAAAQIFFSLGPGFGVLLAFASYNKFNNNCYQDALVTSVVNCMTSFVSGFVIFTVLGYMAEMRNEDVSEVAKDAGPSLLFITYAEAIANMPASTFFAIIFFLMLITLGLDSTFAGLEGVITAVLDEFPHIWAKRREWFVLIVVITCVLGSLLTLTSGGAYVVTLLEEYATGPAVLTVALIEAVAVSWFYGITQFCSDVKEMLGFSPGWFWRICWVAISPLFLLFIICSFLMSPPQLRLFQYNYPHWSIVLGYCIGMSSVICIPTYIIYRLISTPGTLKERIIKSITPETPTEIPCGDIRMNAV
pKi: −log10 of the molar value.
Please enter fulfilled where pKi is greater than or equal to 9, and not fulfilled where it is lower.

Please review the entries below; each comes with its answer.
compound: c1ccc(CO[C@@]2(c3ccccc3)C[C@H]3CC[C@@H](C2)N3)cc1
assay.target: Sodium-dependent serotonin transporter (Rattus norvegicus, UniProt P31652)
category: not fulfilled

compound: Clc1ccc([C@]2(OCc3ccccc3)C[C@H]3CC[C@@H](C2)N3)cc1Cl
assay.target: Sodium-dependent serotonin transporter (Rattus norvegicus, UniProt P31652)
category: not fulfilled

compound: Clc1ccc(C2=CC3CCC(C2)N3)cc1 (configuration not stated)
assay.target: Sodium-dependent serotonin transporter (Rattus norvegicus, UniProt P31652)
category: not fulfilled

compound: Clc1ccc(CO[C@@]2(c3ccc(Cl)c(Cl)c3)C[C@H]3CC[C@@H](C2)N3)cc1Cl
assay.target: Sodium-dependent serotonin transporter (Rattus norvegicus, UniProt P31652)
category: not fulfilled

compound: Clc1ccc([C@]2(OCc3ccccc3)C[C@H]3CC[C@@H](C2)N3)cc1
assay.target: Sodium-dependent serotonin transporter (Rattus norvegicus, UniProt P31652)
category: not fulfilled

compound: Clc1ccc(CO[C@@]2(c3ccccc3)C[C@H]3CC[C@@H](C2)N3)cc1
assay.target: Sodium-dependent serotonin transporter (Rattus norvegicus, UniProt P31652)
category: not fulfilled

compound: C1=C(c2ccccc2)CC2CCC1N2 (configuration not stated)
assay.target: Sodium-dependent serotonin transporter (Rattus norvegicus, UniProt P31652)
category: not fulfilled

compound: FC(F)(F)c1ccc([C@]2(OCc3ccccc3)C[C@H]3CC[C@@H](C2)N3)cc1
assay.target: Sodium-dependent serotonin transporter (Rattus norvegicus, UniProt P31652)
category: not fulfilled

Task item: Record Clc1ccc(C2=CC3CCC(C2)N3)cc1Cl (configuration not stated) ; criterion: pKi no lower than 9. Met?
Reply: fulfilled

Task item: Record Clc1ccc(CO[C@@]2(c3ccccc3)C[C@H]3CC[C@@H](C2)N3)cc1Cl ; criterion: pKi no lower than 9. Met?
Reply: fulfilled

Task item: Record Clc1ccc(CO[C@@]2(c3ccc(Cl)cc3)C[C@H]3CC[C@@H](C2)N3)cc1 ; criterion: pKi no lower than 9. Met?
Reply: fulfilled

====

target: Sodium-dependent dopamine transporter (Rattus norvegicus)
pKi: −log10 of the molar value.
Please enter satisfied where pKi is greater than or equal to 7, and not satisfied where it is lower.

Please review the entries below; each comes with its answer.
molecule: C1=C(c2ccccc2)CC2CCC1N2 (stereo not given)
category: not satisfied
--
molecule: Clc1ccc(CO[C@@]2(c3ccccc3)C[C@H]3CC[C@@H](C2)N3)cc1Cl
category: satisfied
--
molecule: Clc1ccc([C@]2(OCc3ccccc3)C[C@H]3CC[C@@H](C2)N3)cc1
category: not satisfied

Task item: Record Fc1ccc(C2=CC3CCC(C2)N3)cc1 (stereo not given) ; criterion: pKi no lower than 7. Met?
Reply: not satisfied

Task item: Record Clc1ccc(C2=CC3CCC(C2)N3)cc1 (stereo not given) ; criterion: pKi no lower than 7. Met?
Reply: not satisfied

Task item: Record Clc1ccc([C@]2(OCc3ccccc3)C[C@H]3CC[C@@H](C2)N3)cc1Cl ; criterion: pKi no lower than 7. Met?
Reply: not satisfied

Task item: Record Clc1ccc(C2=CC3CCC(C2)N3)cc1Cl (stereo not given) ; criterion: pKi no lower than 7. Met?
Reply: satisfied

Task item: Record FC(F)(F)c1ccc([C@]2(OCc3ccccc3)C[C@H]3CC[C@@H](C2)N3)cc1 ; criterion: pKi no lower than 7. Met?
Reply: not satisfied

====

The following compounds are shown together with reported pKi values.
target: Sodium-dependent dopamine transporter (Rattus norvegicus, UniProt P23977)
Sequence (P23977 whole entry): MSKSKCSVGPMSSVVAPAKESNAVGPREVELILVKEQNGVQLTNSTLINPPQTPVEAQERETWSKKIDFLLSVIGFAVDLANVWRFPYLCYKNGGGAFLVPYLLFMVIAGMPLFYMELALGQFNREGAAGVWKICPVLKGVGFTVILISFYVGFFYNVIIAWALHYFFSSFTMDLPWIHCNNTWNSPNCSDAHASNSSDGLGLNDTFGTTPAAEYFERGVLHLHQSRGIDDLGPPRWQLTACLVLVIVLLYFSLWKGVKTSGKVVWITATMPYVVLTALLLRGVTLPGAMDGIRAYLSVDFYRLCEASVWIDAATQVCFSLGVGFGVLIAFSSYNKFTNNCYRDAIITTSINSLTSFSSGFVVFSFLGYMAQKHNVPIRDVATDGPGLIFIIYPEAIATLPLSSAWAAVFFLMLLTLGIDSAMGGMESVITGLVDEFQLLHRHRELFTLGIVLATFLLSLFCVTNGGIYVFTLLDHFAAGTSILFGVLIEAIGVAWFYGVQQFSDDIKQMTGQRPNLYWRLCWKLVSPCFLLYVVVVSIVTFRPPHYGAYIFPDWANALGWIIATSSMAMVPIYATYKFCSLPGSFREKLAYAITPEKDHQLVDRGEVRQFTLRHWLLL
The meaning of pKi here: minus log10 of the concentration in molar units.

compound: Clc1ccc(CO[C@@]2(c3ccccc3)C[C@H]3CC[C@@H](C2)N3)cc1
pKi: 7.66
//
compound: FC(F)(F)c1ccc(C2=CC3CCC(C2)N3)cc1 (stereo not drawn)
pKi: 5.83

Task item: Please tell me the measured pKi for Clc1ccc(CO[C@@]2(c3ccc(Cl)c(Cl)c3)C[C@H]3CC[C@@H](C2)N3)cc1Cl ; system: Sodium-dependent dopamine transporter (Rattus norvegicus, UniProt P23977).
Reply: 5.53

====

The following compounds are shown together with reported Ratio values.
species on record: Rattus norvegicus; assay: Selectivity ratio of Ki for rat NET to Ki for DAT
Lab note: write the figure by itself, no unit.

// solved cases for Ratio follow
compound: C1=C(c2ccccc2)CC2CCC1N2 (stereo not drawn)
quantity.measured: Ratio
assay.result: 1.1
--
compound: Clc1ccc([C@]2(OCc3ccccc3)C[C@H]3CC[C@@H](C2)N3)cc1Cl
quantity.measured: Ratio
assay.result: 1.7

Task item: Give me measured Ratio, please, for this compound: Fc1ccc(C2=CC3CCC(C2)N3)cc1 (stereo not drawn)
Reply: 1.9

====

pKi, Transporter (Rattus norvegicus), per-entry values.
The meaning of pKi here: minus log10 of the concentration in molar units.

compound: Clc1ccc([C@]2(OCc3ccccc3)C[C@H]3CC[C@@H](C2)N3)cc1Cl
assay.target: Transporter (Rattus norvegicus)
Sequence (Q63380 whole entry): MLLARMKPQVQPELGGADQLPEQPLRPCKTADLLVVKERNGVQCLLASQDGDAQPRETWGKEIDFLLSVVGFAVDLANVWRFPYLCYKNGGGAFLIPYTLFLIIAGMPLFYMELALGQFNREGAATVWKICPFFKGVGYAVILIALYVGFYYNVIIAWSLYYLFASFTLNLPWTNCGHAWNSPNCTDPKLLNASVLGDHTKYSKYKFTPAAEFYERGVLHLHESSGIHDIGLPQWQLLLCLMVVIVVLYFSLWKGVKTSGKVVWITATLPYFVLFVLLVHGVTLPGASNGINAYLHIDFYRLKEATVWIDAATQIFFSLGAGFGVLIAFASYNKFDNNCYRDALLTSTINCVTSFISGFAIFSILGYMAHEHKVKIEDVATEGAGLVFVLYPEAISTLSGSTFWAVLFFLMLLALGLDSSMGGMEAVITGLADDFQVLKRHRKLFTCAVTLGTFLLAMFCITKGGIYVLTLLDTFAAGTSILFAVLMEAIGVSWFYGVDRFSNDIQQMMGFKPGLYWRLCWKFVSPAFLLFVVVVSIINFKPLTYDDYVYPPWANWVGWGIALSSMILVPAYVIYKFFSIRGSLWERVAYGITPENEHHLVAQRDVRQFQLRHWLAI
assay.result: 5.91

Task item: Please tell me the measured pKi for Clc1ccc([C@]2(OCc3ccccc3)C[C@H]3CC[C@@H](C2)N3)cc1 ; system: Transporter (Rattus norvegicus).
Reply: 5.76

Task item: Please tell me the measured pKi for Clc1ccc(CO[C@@]2(c3ccc(Cl)c(Cl)c3)C[C@H]3CC[C@@H](C2)N3)cc1Cl ; system: Transporter (Rattus norvegicus).
Reply: 5.59

Task item: Please tell me the measured pKi for Clc1ccc(CO[C@@]2(c3ccc(Cl)cc3)C[C@H]3CC[C@@H](C2)N3)cc1 ; system: Transporter (Rattus norvegicus).
Reply: 5.63

Task item: Please tell me the measured pKi for FC(F)(F)c1ccc(C2=CC3CCC(C2)N3)cc1 (stereo unspecified) ; system: Transporter (Rattus norvegicus).
Reply: 6.11

Task item: Please tell me the measured pKi for FC(F)(F)c1ccc([C@]2(OCc3ccccc3)C[C@H]3CC[C@@H](C2)N3)cc1 ; system: Transporter (Rattus norvegicus).
Reply: 5.26

Task item: Please tell me the measured pKi for Clc1ccc(C2=CC3CCC(C2)N3)cc1Cl (stereo unspecified) ; system: Transporter (Rattus norvegicus).
Reply: 7.70

Task item: Please tell me the measured pKi for Clc1ccc(CO[C@@]2(c3ccccc3)C[C@H]3CC[C@@H](C2)N3)cc1 ; system: Transporter (Rattus norvegicus).
Reply: 7.00

Task item: Please tell me the measured pKi for Clc1ccc(CO[C@@]2(c3ccccc3)C[C@H]3CC[C@@H](C2)N3)cc1Cl ; system: Transporter (Rattus norvegicus).
Reply: 6.00

Task item: Please tell me the measured pKi for C1=C(c2ccccc2)CC2CCC1N2 (stereo unspecified) ; system: Transporter (Rattus norvegicus).
Reply: 5.89

Task item: Please tell me the measured pKi for Clc1ccc(C2=CC3CCC(C2)N3)cc1 (stereo unspecified) ; system: Transporter (Rattus norvegicus).
Reply: 6.92
